Entries and their human MASP2 IC50 values follow.
# EXPERIMENTAL TARGET: recombinant human MASP2 (amino acids 297-686, C-terminal His Tag) (human, UniProt O00187 297-686)
# Sequence (O00187 other isoform, or with tags, fused parts or gaps limits assumed): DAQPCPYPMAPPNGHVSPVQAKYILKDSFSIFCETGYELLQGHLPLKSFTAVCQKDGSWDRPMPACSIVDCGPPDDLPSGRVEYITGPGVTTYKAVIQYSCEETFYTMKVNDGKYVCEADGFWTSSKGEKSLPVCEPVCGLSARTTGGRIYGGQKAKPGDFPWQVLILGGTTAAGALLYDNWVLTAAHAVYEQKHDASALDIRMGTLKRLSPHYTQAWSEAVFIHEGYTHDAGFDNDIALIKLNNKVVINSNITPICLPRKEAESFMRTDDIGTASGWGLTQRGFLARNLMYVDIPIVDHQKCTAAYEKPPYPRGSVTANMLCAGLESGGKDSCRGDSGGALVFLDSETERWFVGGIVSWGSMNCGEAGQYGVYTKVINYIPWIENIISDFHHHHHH
# PROTOCOL TEXT: cell-based or functional assay
Bridges are numbered along the chain shown (N, C = ends). Where no end group is shown, it is not given here. [ ]: non-standard residue; d: D form. Oic = O=C(O)[C@@H]1C[C@@H]2CCCC[C@@H]2N1; tBuAla = CC(C)(C)C[C@H](N)C(=O)O; PEG4 = NCCOCCOCCOCCOCCC(=O)O; Pen = CC(C)(S)[C@H](N)C(=O)O; Ahx = NCCCCCC(=O)O

BINDER | OUTPUT UNIT | human MASP2 IC50
[Ahx]GICSRS[tBuAla]PPI[Pen]IPD-NH2 (disulfide 4-12; lactam N-15; also: TFA salt) [Example 48: (Ahx)**-GIC+SRS-((tBu)A)-PPI-(Pen)+-IPD++-NH2] | nM | 70
cyclo([Ahx]AICSRS[tBuAla]PPICIPD) (disulfide 4-12; also: TFA salt) [Example 46: (Ahx)**-AIC+SRS-((tBu)A)-PPIC+IPD**] | nM | 89
cyclo(AGGICSRS[tBuAla]PPI[Pen]IP[dD]) (disulfide 5-13; also: TFA salt) [Example 39: A**GGIC+SRS-((tBu)A)-PPI-(Pen)+-IPd**] | nM | 75
GAICSRSLPPICIPD-NH2 (disulfide 4-12; lactam N-15; also: TFA salt) [Example 37: G**AIC+SRSLPPIC+IPD++-NH2] | nM | 140
cyclo([PEG4]GICSRSLPPICIPD) (disulfide 4-12; also: TFA salt) [Example 14: (PEG3(16 atoms))**-GIC+SRSLPPIC+IPD**] | nM | 240
cyclo(ICSRS[tBuAla]PPI[Pen]IP) (disulfide 2-10; also: HCl salt) [Example 88: I**C+SRS-((tBu)A)-PPI-(Pen)+-IP** (HCl Salt)] | nM | 1000
cyclo([Ahx]GICSRS[tBuAla]PPI[Pen]IPD) (disulfide 4-12; also: TFA salt) [Example 28: (Ahx)**-GIC+SRS-((tBu)A)-PPI-(Pen)+-IPD**] | nM | 29
[Ahx]G[dA]ICSRSLP[Oic]I[Pen]IPE-NH2 (disulfide 5-13; lactam N-16; also: TFA salt) [Example 84: (Ahx)**-GaIC+SRSLP-(Oic)-I-(Pen)+-IPE++-NH2] | nM | 87
[3‑azido‑L‑alanine]GAICSRS[tBuAla]PPICIP[L‑propargylglycine]-NH2 (triazole 1-16; disulfide 5-13; also: TFA salt) | nM | 230
cyclo(AGGICSRSLP[Oic]I[Pen]IP[dD]) (disulfide 5-13; also: TFA salt) [Example 98: A**GGIC+SRSLP-(Oic)-I-(Pen)+-IPd**] | nM | 160
